Target: T1, dimeric human PRLR (hPRLR.mFc; SEQ ID NO:402) (Homo sapiens, UniProt P16471)
T1 construct: dimeric (hPRLR.mFc)
T1 sequence (P16471 with tags, fused parts or gaps): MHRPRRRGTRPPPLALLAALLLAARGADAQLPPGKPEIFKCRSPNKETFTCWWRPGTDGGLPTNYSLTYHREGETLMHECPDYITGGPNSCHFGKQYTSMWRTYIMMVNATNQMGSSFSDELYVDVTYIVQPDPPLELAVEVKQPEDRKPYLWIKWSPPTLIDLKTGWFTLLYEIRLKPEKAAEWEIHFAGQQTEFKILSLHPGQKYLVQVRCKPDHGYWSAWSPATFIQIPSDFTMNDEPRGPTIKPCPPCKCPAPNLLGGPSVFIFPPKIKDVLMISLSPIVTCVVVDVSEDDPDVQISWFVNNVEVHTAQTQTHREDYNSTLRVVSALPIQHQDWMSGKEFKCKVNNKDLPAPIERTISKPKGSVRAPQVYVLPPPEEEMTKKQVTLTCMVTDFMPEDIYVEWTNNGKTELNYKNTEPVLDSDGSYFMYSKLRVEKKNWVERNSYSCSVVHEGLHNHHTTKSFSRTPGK
Experiment: Surface plasmon resonance (Biacore T200), antibody-capture format
Assay type: binding
Conditions: 25° C., analyte hPRLR.mFc
I'd appreciate it if you could supply ka values for the items below.
Numbers only, in M/s.

- molecule: "H1H6803P: fully human anti-PRLR antibody, human IgG1 Fc; HCVR/LCVR SEQ ID NOs 226/234 (antibody, V domains shown) VH: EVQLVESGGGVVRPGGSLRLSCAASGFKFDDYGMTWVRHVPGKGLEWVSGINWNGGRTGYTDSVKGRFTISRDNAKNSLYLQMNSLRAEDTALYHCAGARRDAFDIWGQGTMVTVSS VL: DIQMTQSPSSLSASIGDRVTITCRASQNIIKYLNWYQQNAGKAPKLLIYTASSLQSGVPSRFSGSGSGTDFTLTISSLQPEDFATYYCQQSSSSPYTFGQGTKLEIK"
  ka [M/s]: 104000

Attention now shifts to the item below.
Given the molecule H1H6765P: fully human anti-PRLR antibody, human IgG1 Fc; HCVR/LCVR SEQ ID NOs 18/26 (antibody, V domains shown) VH: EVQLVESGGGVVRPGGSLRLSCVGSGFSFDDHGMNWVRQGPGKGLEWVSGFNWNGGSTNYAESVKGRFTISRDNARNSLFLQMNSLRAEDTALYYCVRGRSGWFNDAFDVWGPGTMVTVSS VL: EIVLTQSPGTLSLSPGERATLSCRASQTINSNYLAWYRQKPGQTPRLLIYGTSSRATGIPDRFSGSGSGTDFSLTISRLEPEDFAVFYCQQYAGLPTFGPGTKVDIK , what is its reported ka?
869000

Cited source for all entries: patent US10925971B2
